- measurement notes: yeast display, Sf9 membrane polyspecificity reagent, FACS + sequencing; frameworks hold sequencing errors

query sequence	polyreactivity (PSR sort gate)
QVQLVESGGGLVQAGGSLRLSCAASGSIFSQYLMVWYRQAPGKERELVAAISWSGGHTYYADSVKGRFTISRDNAKNTVYLQMNSLKPEDTAVYYCATVPRKTPGNAELDYWGHGTQVTVSS	high polyreactivity
QVQLVESGGGLVQAGGSLRLSCATTGSTFQVYTMGWNRQAPGKEREFVASISWSGSSTYYADSVKGRFTISRDNAKNTVYLQMNSLKPEDTAVYYCAARARIKYLADPGYYWGQGTQVTVSS	high polyreactivity

* * *

- measurement notes: yeast display, Sf9 membrane polyspecificity reagent, FACS + sequencing; frameworks hold sequencing errors

query sequence	polyreactivity (PSR sort gate)
QVQLVESGGGLVQAGGSLRLSCAASGRILYYNVMVWYRQAPGKERELVASNTSVVSTNYADSVKGRFTISRDNAKNTVYLHMNSLKPEDTAVYYCAARYFSGSFSDEIWGMDYWGQGTQVTVSS	high polyreactivity
QVQLVESGGGLVQAGGSLRLSCAASGIIFYYNAMGWNRKAPGKERELVAAISQRGSSTYYADSVKGRFTISRDNAQNTVYLQMNSLKPEDTAVYYCAKRFIYGRYNYWGQGTQVTVSS	high polyreactivity
QFQLVESGGGLVQAGVSLRLSCAASGRIFSLYAMGWYRQAPGKERELVAAISYSGGSTYADSVKGRFTFSRDNAKNTVFLQMNSLKPEDTAVYYCAAEEYLAYAQFDYWGQGTQVTVSS	low polyreactivity
QVQLVESVGGLVQAGGSLRLSCAASGSIFYNNAMGWYRQAPGKDRELVAAIRSTGTRTYYADSVKGRFTISRDHAKNTVYLQMNSLKAEDTAVYYCAVGDYGLWSYDYWGQGTQLTVSS	low polyreactivity
QVQLVESGGRLLQAGGSLRLSCAASGRTFRRYAMGWYRPAPGKERELLAAISASGGSTYYADSVKGRFTISRDNAKNTVYLQMNSLKPEDTAVYYCAADWYSYLHGTKYGYWGQGTQVTVSS	high polyreactivity
QVQLVESGGGLVQAGGSLRLSCAASGFTFHGYAMGWYRQAPGKERELVAAIRSGDRTYYADSVKGRFTISRDNAKNTVYLQMNSLKPEDTAVYYCAVVYGYLYRYSAKYDYWGQGTQVTVSS	low polyreactivity
QVQLVESGGGLVQAGGSLRLSCAASGSTFYTNAMGWYRQAPGKERELVAAISASVGSTYYADSVKGRFTISRDNAKNTVYLQMNSLKPEDTAVYYCAADRGFYYEYDYWGQGTQVTVSS	low polyreactivity
QVQLVESGGGLVQAGGSHRLSCAASGFIFSYYAMGWYRQAPGKERELVAAITDSGGSTYYADSVKGRFTISRDNAKNTVYLQMNSLKPEDTAVYYCAATYWWAYVWAYSHVKSTNDYWGQGTQVTVSS	low polyreactivity
QVQLVESGGGLVQAGGSLRLSCAASGNIFYYYAMGWYRQAPGKERELVAAISNGITYYADSVKGRFTISRDNAKNTVYLQMNSLKPEDTAVYYCAVDSDGNVRAVSGESLYDYWGQGTQVTVSS	low polyreactivity
QVHLVESGGGLVQAGGSLRLSCAASGRIFDYYAMGWYRQAPGKERELVARITSGGTTNYADSVKGRFTISRDNENNTVYLQMNSLKPEYTEVYYCKAHDYSDPLQMDYWGQGTQVTVSS	low polyreactivity
QVQLVESGGGLVQAGGSLRLSCAASGSTFVSNAMGWYRPAPGKERELVAAISSSGGRTSYADSVKGRFTISRDNAKNTVYLQMNSLKPEDTAVYYCAARFKSVDYVQYYYWGQGTQVTVSS	low polyreactivity
